Recorded values, source the RNAGym collection of RNA variant scans (doi:10.1093/molbev/msab373).

B1: Azoarcus group I ribozyme (parent)
chain: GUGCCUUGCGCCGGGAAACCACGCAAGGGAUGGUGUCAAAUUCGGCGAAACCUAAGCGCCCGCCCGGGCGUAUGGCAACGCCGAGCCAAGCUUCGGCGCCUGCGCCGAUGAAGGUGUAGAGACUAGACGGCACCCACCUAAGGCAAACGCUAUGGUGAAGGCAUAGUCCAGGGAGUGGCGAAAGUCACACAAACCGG

variants of: B1; assay: reverse-splicing fitness (ratio to wild type); higher = more active; in vitro selection; Mg2+ level not given
Tick satisfied if reverse-splicing fitness is 0.01 or greater. Tick not satisfied if reverse-splicing fitness is less than 0.01.

Sample answers from the record:
INSERT INTO measurements (mutation_code, class_assignment) VALUES
  ('C82U A111C A145U C150U C169U U176C', 'satisfied'),
  ('C82U A120G A145G C169G', 'satisfied'),
  ('C82G C150U C169A U176G', 'not satisfied'),
  ('C82A C150G C169G U176A', 'not satisfied'),
  ('C82U A120C A145C C150U C169U', 'satisfied'),
  ('A111C A120C A145G C150A C169G', 'not satisfied'),
  ('C82G A111G A120U C169A', 'not satisfied'),
  ('C82G A120C A145C C150G C169U U176G', 'not satisfied');

INPUT: # bool: reverse-splicing fitness of A111U A120U A145C C150G >= 0.01
OUTPUT: satisfied

INPUT: # bool: reverse-splicing fitness of C82U A120U A145G C150G C169G U176C >= 0.01
OUTPUT: not satisfied

INPUT: # bool: reverse-splicing fitness of C82G A111G A120C A145G C150U C169G U176A >= 0.01
OUTPUT: satisfied

INPUT: # bool: reverse-splicing fitness of A111G A145C C150U U176A >= 0.01
OUTPUT: satisfied

INPUT: # bool: reverse-splicing fitness of C82G A111C A120G C169A U176C >= 0.01
OUTPUT: satisfied

INPUT: # bool: reverse-splicing fitness of C82G A111C A120U A145U C150U C169U >= 0.01
OUTPUT: not satisfied

INPUT: # bool: reverse-splicing fitness of C82A A111G A120G C169A U176A >= 0.01
OUTPUT: satisfied

INPUT: # bool: reverse-splicing fitness of C82A A111U A145U U176A >= 0.01
OUTPUT: satisfied

INPUT: # bool: reverse-splicing fitness of C82G A111U A120U A145U U176C >= 0.01
OUTPUT: satisfied

INPUT: # bool: reverse-splicing fitness of C82U A111C A145U C150G >= 0.01
OUTPUT: satisfied

INPUT: # bool: reverse-splicing fitness of C82G A145C C150G C169G U176G >= 0.01
OUTPUT: not satisfied
